System: STAT3
experiment notes: STAT3 reporter gene assay (luciferase), LNCaP stable cell line pSTAT3-TA-luc, IL-6 stimulation
Type: cell-based, human
stated conditions: Homo sapiens
IC50 less than 0.04 µM is t; IC50 greater than or equal to 0.04 µM is f.

molecule	group label
Cc1onc(Oc2cc(NC(=O)c3cc4cc(C(C)(C)S(C)(=O)=O)ccc4s3)cc(Cl)n2)c1C	f
CC(C)(c1ccc2sc(C(=O)Nc3cc(Cl)nc(Oc4ccc(Cl)cn4)c3)cc2c1)S(C)(=O)=O	f
CC(C)(c1ccc2sc(C(=O)Nc3cc(Cl)nc(Oc4csc(C(F)(F)F)c4)c3)cc2c1)S(C)(=O)=O	t

Below: the item to evaluate.
Req: In the record for CC(C)(c1ccc2sc(C(=O)Nc3cc(Cl)nc(Oc4ccc(Cl)c(F)c4)c3)cc2c1)S(C)(=O)=O , is IC50 less than 0.04 µM?
Resp: t

Sourced from patent US10023591B2
